src = ChEMBL document CHEMBL1817607

system: Plasmodium falciparum; assay: Antiplasmodial activity against chloroquine-sensitive Plasmodium falciparum D10 infected in human type A-positive RBC assessed as inhibition of parasite LDH activity after 72 hrs by spectrophotometrically; format: functional, organism-based; conditions: D10, 72 h
pIC50: −log10 of the molar value.
Please provide measured pIC50 for the entries that follow.

**Query** Could you share which pIC50 value was measured for C[C@@]12CCO[C@@H]1OO[C@@H](c1ccccc1)C2 (racemic) ?
**Result** < 4.70

**Query** Given CCCCCC1(C)C[C@@H]2CCO[C@@H]2OO1 (mixture of isomers) , state its recorded pIC50.
**Result** < 5.00

**Query** Dear colleague, I am looking for the recorded pIC50 of the following compound: Cc1ccccc1[C@@H]1C[C@]2(C)CCO[C@@H]2OO1 (racemic)
**Result** < 4.70
